This collection of values is drawn from paper PMC10397247.

targetDesc: T1, 4H43-AA
T1 chain: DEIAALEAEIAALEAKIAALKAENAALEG
procedureDetails: two-hybrid library CCmax;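 note: natural log of median RNA to DNA barcode read ratio; higher means stronger binding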
experimentalConditions: mean of both orientations
readoutKind: interaction score

[
  {
    "binder": "DKIAALKAENAALEAENAALEAEIAALEG [4H2705-AA]",
    "interaction score": -1.82
  }
]

[P] DENAALEAKIAALKAKIAALKAKNAALKG [4H1392-AA]
[Q] DENAALEAKIAALKAKIAALKAEIAALEG [4H1385-AA]
Prompt: Lab note: check whether P or Q has the lower measured interaction score. Write the label of whichever entry you select.
Completion: P

[P] DKIAALKAKNAALKAKIAALKAEIAALEG [4H3049-AA]
[Q] DKNAALKAKNAALKAEIAALEAKIAALKG [4H4038-AA]
Prompt: Which value of interaction score is numerically greater: that of P or that of Q ? Bench note: the answer is the label of the chosen record.
Completion: P

[I] DKNAALKAKIAALKAEIAALEAEIAALEG [4H3905-AA]
[II] DKNAALKAEIAALEAEIAALEAENAALEG [4H3587-AA]
Prompt: // task: argmin of interaction score over [ I , II ] Reply with the label of the item you choose.
Completion: II

[A] DEIAALEAENAALEAEIAALEAKIAALKG [4H134-AA]
[B] DKNAALKAEIAALEAEIAALEAKIAALKG [4H3590-AA]
Prompt: Identify the entry with the larger interaction score. Options: A and B // respond with label for picked entry
Completion: B
